TGI for assorted molecules
system: SR leukemia; assay: NCI tumour cell line growth inhibition, 48 h

Sample records with TGI:
# Molecule, TGI
measured = [
    ("C/C(=N\\NC(=O)c1ccccc1O)c1cccc(/C(C)=N/NC(=O)c2ccccc2O)n1.O=S(=O)([O-])[O-].[Fe+2]", "> 100 µM"),
    ("C=C1C(=O)O[C@H]2C1C[C@@H](OC(C)=O)/C(C)=C/CC[C@@]1(C)O[C@H]21 (stereo partly drawn)", "20.1 µM"),
    ("CCc1ccc(COC(=O)C2=C(C)NC(C)=C(C(=O)OCc3ccc(CC)cn3)C2C2=COCCO2)nc1", "> 100 µM"),
    ("O=C1/C(=C/c2ccccc2[N+](=O)[O-])N=C(c2ccccc2)N1c1nc2ccccc2s1", "34.3 µM"),
    ("O=C1O[C@H]2[C@H](OC(=O)c3cc(O)c(O)c(O)c3)[C@@H](OC(=O)c3cc(O)c(O)c4c3[C@@H]3C1=CC(=O)C(O)(O)C3(O)O4)[C@H](OC(=O)c1cc(O)c(O)c(O)c1)O[C@@H]2COC(=O)c1cc(O)c(O)c(O)c1 (stereo partly drawn)", "> 100 µM"),
]

Please examine the following record next.
Write down the reported TGI of CC(C)(Cl)C(Br)CCC(Br)(CCl)C(Cl)CBr (stereo not drawn) , test system: SR leukemia.
> 10 µM

---

system: ACHN renal; test: NCI tumour cell line growth inhibition, 48 h
Assay readout: TGI

Sample records with TGI:
# Molecule, Result
measured = [
    ("COc1cccc(/C=C2\\S/C(=N/Nc3nc(C)c(C)s3)NC2=O)c1O", "> 100 µM"),
    ("CCCCc1ccc(Nc2nc(OC)c3ncn(C4CC(O)C(CO)O4)c3n2)cc1 (stereo not given)", "31.2 µM"),
    ("C=C(C(=O)OC)[C@@H]1C[C@@H](OC(C)=O)C2=C[C@H](C[C@@]3(C)O[C@@H]3C3=CC(C)=C(O3)[C@H]1OC(C)=O)OC2=O", "49.4 µM"),
    ("CC(=O)[CH-]C(=O)c1ccccc1.CC(=O)[CH-]C(=O)c1ccccc1.O=S(=O)([O-])c1cc([O-])c2c([O-])cc(S(=O)(=O)[O-])cc2c1.[Na+].[Zr+4]", "> 100 µM"),
    ("COC(=O)[C@@]12CC(C(C)C)[C@H]3CC(C(=O)C=C1OC)[C@H]32 (stereo not given in full)", "> 100 µM"),
    ("C/C(=N\\NC(=O)c1ccccc1O)c1cccc(/C(C)=N/NC(=O)c2ccccc2O)n1.O=S(=O)([O-])[O-].[Fe+2]", "> 100 µM"),
    ("C#CCN(c1ccc(C(=O)N[C@@H](CCC(=O)N[C@H](CCC(=O)O)C(=O)O)C(=O)O)cc1)C1CCc2cc3nc(CO)[nH]c(=O)c3cc21 (stereo not given in full)", "> 100 µM"),
    ("O=C(Nc1ccc(Cl)c(Cl)c1)C(=O)C(C(=O)c1ccccc1-c1ccccc1)C1OC(=O)c2ccccc21 (stereo not given)", "> 100 µM"),
    ("CCCCCCCCCCCCOC1C(CNC(=O)C2OC3OC(C)(C)OC3C2NC(=O)CN2CCN(c3ccc(OC)cc3)CC2)OC2OC(C)(C)OC21 (stereo not given)", "11.2 µM"),
]

Quick check: TGI of `N[C@@H]1CCN(c2c(F)cc3c(=O)c(C(=O)O)cn4c3c2Oc2cc3c(ccc5ccccc53)cc2-4)C1` ?
> 41.7 µM

---

test system: SK-MEL-2 melanoma; experiment: NCI tumour cell line growth inhibition, 48 h
Assay readout: TGI

Sample records with TGI:
# Compound, TGI
rows = [
    ("O=[N+]([O-])c1ccc(-n2nc3ccc4c(no[n+]4[O-])c3n2)cc1", "> 100 µM"),
    ("CCOC(=O)CC(NC(=O)c1[nH]cnc1/N=N/N(C)C)C(=O)OCC (stereo not given)", "> 100 µM"),
    ("COc1ccc(/C=C2/SC(Nc3nc(-c4nc(NC5=NC(=O)/C(=C\\c6ccc(OC)cc6)S5)sc4C)c(C)s3)=NC2=O)cc1", "> 50 µM"),
]

Quick check: TGI of `COc1ccc(S(=O)(=O)N(CC(=O)O)c2ccccc2)cc1` ?
> 100 µM

Quick check: TGI of COc1ccccc1/C=C/C1=NN(c2cccc(S(=O)(=O)O)c2)C2(C1)C(Cl)C(=O)N2c1nc2ccccc2s1 (stereo not given) ?
> 100 µM

---

TGI for assorted compounds
tested on: 786-0 renal; assay: NCI tumour cell line growth inhibition, 48 h

Sample records with TGI:
# Compound, TGI
records = [
    ("CCOP(=O)(OCC)C(NC(=O)C(C(F)(F)F)C(F)(F)F)c1ccccc1 (stereo not given)", "> 100 µM"),
    ("COc1c(-c2ccccc2)nc2ccc(Oc3ccccc3)nn12", "> 100 µM"),
    ("NC1=NN(c2ccccc2)C(=O)C1C(=O)C(=O)Nc1ccc(Cl)c(Cl)c1 (stereo not given)", "> 100 µM"),
    ("Nc1ccccc1C(=O)CCC1C(=O)NC(=S)NC1=O", "> 100 µM"),
]

Please examine the following record next.
Quick check: TGI of `Cc1ccc2c(=O)cc(-c3ccc4ccccc4c3)[nH]c2n1` ?
> 100 µM

---

tested on: OVCAR-3 ovarian; experiment: NCI tumour cell line growth inhibition, 48 h
Assay readout: TGI

Sample records with TGI:
# Molecule, Result
measured = [
    ("CC[C@@H](C)/C=C(C)/C=C/C(=O)c1c(O)c(-c2ccc(O)cc2)cn(O)c1=O", "13 µM"),
    ("CCCCCCCC/C=C/CCCCCCCC1=NC(C)(C)CN1CCO", "9 µM"),
    ("Cc1ccc2c(=O)cc(-c3ccc4ccccc4c3)[nH]c2n1", "> 100 µM"),
    ("CNS(=O)(=O)NNS(=O)(=O)c1ccc(OC)cc1", "> 100 µM"),
    ("CC(C)COc1nc2c(c(=O)n(C)c(=O)n2C)n1C", "> 100 µM"),
    ("[B-][P+](CC[P+]1([B-])[C@@H](C)[C@@H](O)[C@H](O)[C@@H]1C)(c1ccccc1)c1ccccc1OC (some centres not stated)", "31 µM"),
    ("COC(=O)c1oc2c(C(=O)/C=C/c3ccc(OC)cc3)c(OCCN(C)C)ccc2c1C", "21.3 µM"),
    ("C=CCOC(=O)C1=C(C)NC2=N[C@H](CCCCCCCCC)C[C@@H]3CCC1N23 (some centres not stated)", "37.5 µM"),
    ("O=C(c1ccc(Cl)cc1)C(O)c1ccc(Cl)cc1 (configuration not stated)", "> 100 µM"),
    ("COC(=O)C1C(=O)O[C@@H](c2cc(OC)c(OC)cc2OC)C1C(=O)OC (mixture of isomers)", "> 100 µM"),
]

Please examine the following record next.
Write down the reported TGI of O=C1c2ccccc2C2CCC1c1ccccc12 (configuration not stated) , test system: OVCAR-3 ovarian.
> 100 µM

---

system: A549 NSCLC; assay: NCI tumour cell line growth inhibition, 48 h
Assay readout: TGI

# Molecule, Assay readout, Result
rows = [
    ("CN(/N=C\\c1ccnc2ccccc12)c1ccc([N+](=O)[O-])cc1", "TGI", "> 100 µM"),
]

Quick check: TGI of CC(=O)OCC1OC(n2c3c(c(-c4ccc(Cl)cc4)c(C#N)c2=S)CCCC3)C(OC(C)=O)C(OC(C)=O)C1OC(C)=O (stereo not drawn) ?
> 100 µM

Quick check: TGI of `O=C(c1ccccc1)N1CCC(CC2(c3cc4ccccc4[nH]3)OCCO2)CC1` ?
> 100 µM

---

test system: OVCAR-8 ovarian; assay: NCI tumour cell line growth inhibition, 48 h
Assay readout: GI50

Sample records with GI50:
# Compound, GI50
measured = [
    ("C=CCC(N[C@H](CO)c1ccccc1)c1cn(Cc2ccccc2Cl)c(=O)n(Cc2ccccc2Cl)c1=O (stereo not given in full)", "15.2 µM"),
    ("N#Cc1cnc(Nc2cc(NC[C@H]3CNCCO3)c(C(F)(F)F)cn2)cn1", "3.69 µM"),
    ("COc1ccc(/C=C2/SC(Nc3nc(-c4nc(NC5=NC(=O)/C(=C\\c6ccc(OC)cc6)S5)sc4C)c(C)s3)=NC2=O)cc1", "1.71 µM"),
    ("O=C1c2ccccc2-c2c1c1ccccc1c(=O)n2CCCNCCn1c2c(c3ccccc3c1=O)C(=O)c1ccccc1-2", "2.73 µM"),
]

Please examine the following record next.
Write down the reported GI50 of `Clc1ccccc1-c1nnc2c(Cc3ccccc3)nc3ccccc3n12` , test system: OVCAR-8 ovarian.
7.21 µM

---

TGI for assorted compounds
tested on: MDA-MB-435; test: NCI tumour cell line growth inhibition, 48 h

Sample records with TGI:
# Compound, Subject of test, Assay readout, Result
data = [
    ("COc1cccc(C2c3cc4c(cc3OC(NNS(=O)(=O)c3ccc(C)cc3)C2C)OCO4)c1OC (centres undefined)", "MDA-MB-435", "TGI", "> 100 µM"),
    ("NS(=O)(=O)c1cc(C(=O)O)c(O)c2ccccc12", "MDA-MB-435", "TGI", "> 100 µM"),
    ("CCC1(c2ccc(N3C(=O)c4cc(OC)c(OC)cc4C3=O)cc2)CCC(=O)NC1=O (centres undefined)", "MDA-MB-435", "TGI", "> 10 µM"),
]

Please examine the following record next.
Quick check: TGI of CC1NC(=O)C2=C1C(=O)NC(=O)C2 (centres undefined) ?
> 100 µM

Numbers sourced from PubChem BioAssay (NCI).
